- assay.notes: Drug level in New Zealand white rabbit ligament assessed as [14C]dalbavancin level per gram of tissue at 20 mg/kg, iv after 12 hrs by autoradioluminography
- Assay type: ADME, organism-based, Oryctolagus cuniculus
- Set-up: dose 20 mg/kg, route intravenous
- assay.context: in vivo
quantity: Drug uptake (µg/g)
Write down the numeric answer in µg/g and omit the unit.

Request: # return recorded Drug uptake for entry CN[C@H]1C(=O)N[C@@H]2Cc3ccc(cc3)Oc3cc4cc(c3O[C@@H]3O[C@H](C(=O)O)[C@@H](O)[C@H](O)[C@H]3NC(=O)CCCCCCCCC(C)C)Oc3ccc(cc3Cl)[C@@H](O)[C@@H]3NC(=O)[C@H](NC(=O)[C@@H]4NC(=O)[C@@H](NC2=O)c2cc(cc(O)c2Cl)Oc2cc1ccc2O)c1ccc(O)c(c1)-c1c(O[C@H]2O[C@H](CO)[C@@H](O)[C@H](O)[C@@H]2O)cc(O)cc1[C@@H](C(=O)NCCCN(C)C)NC3=O
Result: 22.1
